Data origin, for the record: the supplement of paper PMC7877785

Assay: self-splicing fitness, log relative to wild type (ln ratio); higher = more splicing; Tetrahymena group I intron in knt gene, E. coli kanamycin selection, DiMSum; sequences stand for … in CUCUCU…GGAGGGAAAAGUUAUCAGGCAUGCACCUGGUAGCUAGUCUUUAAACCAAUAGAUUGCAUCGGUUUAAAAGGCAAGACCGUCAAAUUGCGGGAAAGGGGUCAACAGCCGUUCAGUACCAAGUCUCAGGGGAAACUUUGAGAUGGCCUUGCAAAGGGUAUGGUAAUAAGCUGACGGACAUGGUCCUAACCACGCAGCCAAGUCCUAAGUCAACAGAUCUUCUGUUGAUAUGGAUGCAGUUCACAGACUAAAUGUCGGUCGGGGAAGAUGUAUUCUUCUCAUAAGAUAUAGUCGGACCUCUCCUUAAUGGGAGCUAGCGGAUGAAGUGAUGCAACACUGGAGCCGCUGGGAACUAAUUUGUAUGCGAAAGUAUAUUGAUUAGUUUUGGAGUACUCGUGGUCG;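 also: selection with 25 µg/mL kanamycin versus none on LB agar overnight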
Details: 37 °C
Label Fulfilled when self-splicing fitness (ln) is at or above -1; anything below gets Not fulfilled.

INSERT INTO measurements (sequence_text, class_name) VALUES
  ('GGGUAGCAAUAUUACGUCAU', 'Fulfilled'),
  ('CAGAAGCAAUAUUACGCAGA', 'Not fulfilled'),
  ('ACUAAGCAAUAUUACGCGGG', 'Not fulfilled'),
  ('CGUUAGCAAUAUUACGGAGA', 'Not fulfilled'),
  ('AUUCAGCAAUAUUACGAGUA', 'Not fulfilled'),
  ('CAUAAGCAAUAUUACGAAUU', 'Not fulfilled'),
  ('GUUAAGCAAUAUUACGAGGC', 'Not fulfilled'),
  ('UAAGAGCAAUAUUACGCUAU', 'Not fulfilled'),
  ('GUCAAGCAAUAUUACGUAGA', 'Not fulfilled'),
  ('GGCCAGCAAUAUUACGUGAG', 'Not fulfilled'),
  ('AUAAAGCAAUAUUACGAUAC', 'Fulfilled'),
  ('UCUUAGCAAUAUUACGUAAC', 'Not fulfilled'),
  ('GUCUAGCAAUAUUACGUUAA', 'Fulfilled'),
  ('ACGAAGCAAUAUUACGUUUC', 'Not fulfilled'),
  ('GCUCAGCAAUAUUACGCGGU', 'Not fulfilled');

* * *

Experiment: self-splicing fitness, log relative to wild type (ln ratio); higher = more splicing; Tetrahymena group I intron in knt gene, E. coli kanamycin selection, DiMSum; sequences stand for … in CUCUCU…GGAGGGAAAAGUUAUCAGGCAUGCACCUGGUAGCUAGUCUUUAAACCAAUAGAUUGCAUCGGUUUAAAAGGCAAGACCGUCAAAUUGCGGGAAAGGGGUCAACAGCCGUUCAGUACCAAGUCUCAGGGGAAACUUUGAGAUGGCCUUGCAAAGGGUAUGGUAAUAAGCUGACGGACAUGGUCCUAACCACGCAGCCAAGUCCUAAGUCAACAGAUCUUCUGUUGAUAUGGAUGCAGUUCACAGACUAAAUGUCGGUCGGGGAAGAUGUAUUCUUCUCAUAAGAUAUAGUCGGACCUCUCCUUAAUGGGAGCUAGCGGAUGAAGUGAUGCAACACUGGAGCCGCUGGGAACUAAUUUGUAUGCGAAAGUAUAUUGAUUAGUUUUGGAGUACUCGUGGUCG
Details: 37 °C
Label MET when self-splicing fitness (ln) is at or above -0.7; anything below gets NOT MET.

INSERT INTO results (sequence_text, class_name) VALUES
  ('CGUAAGCAAUAUUACGGGUU', 'NOT MET'),
  ('UAUCAGCAAUAUUACGGCCA', 'MET'),
  ('UCCAAGCAAUAUUACGCGUG', 'NOT MET'),
  ('CAUUAGCAAUAUUACGCGUA', 'NOT MET'),
  ('UUACAGCAAUAUUACGAAAC', 'NOT MET'),
  ('GUUGAGCAAUAUUACGCUUU', 'NOT MET'),
  ('GCAAAGCAAUAUUACGUAUC', 'NOT MET'),
  ('AGGCAGCAAUAUUACGGACG', 'MET'),
  ('GACAAGCAAUAUUACGUGGC', 'NOT MET'),
  ('GCUGAGCAAUAUUACGCACU', 'MET'),
  ('GUACAGCAAUAUUACGGUGA', 'NOT MET'),
  ('CCAAAGCAAUAUUACGUUGU', 'NOT MET'),
  ('GACAAGCAAUAUUACGAAAC', 'NOT MET'),
  ('UCCUAGCAAUAUUACGCUGA', 'NOT MET'),
  ('UAGUAGCAAUAUUACGCGCA', 'MET');
